Organism: Ovis aries
Experiment: Inhibition of sheep brain microtubule polymerization at 5 uM after 15 mins by UV-vis spectrophotometric analysis
Active and inactive are the calls of the source. No cut-off for these calls is given here.
Quantity Name: microtubule polymerization inhibition (active/inactive call)

COc1ccc(-c2[nH]c(SC)nc2-c2cc(OC)c(OC)c(OC)c2)cc1OC	Active
COc1ccc(-c2[nH]c(SC)nc2-c2cc(OC)c(OC)c(OC)c2)cc1	Active
CCSc1nc(-c2cc(OC)c(OC)c(OC)c2)c(-c2ccc(OC)c(OC)c2)[nH]1	Active
CCSc1nc(-c2cc(OC)c(OC)c(OC)c2)c(-c2ccc(OC)cc2)[nH]1	Active

###

System: MCF7
Test: Cytotoxicity against human MCF7 cells assessed as growth inhibition after 48 hrs by MTT assay
Assay type: functional, cell-based
Conditions: MCF7, 48 h
Below: a set of entries, each annotated with reported IC50.
Give the number first and the unit second.

Examples with their reported IC50 follow.
CCSc1nc(-c2cc(OC)c(OC)c(OC)c2)c(-c2ccc(OC)cc2OC)[nH]1	3.55 µM
CCSc1nc(-c2cc(OC)c(OC)c(OC)c2)c(-c2cccc(OC)c2OC)[nH]1	22.9 µM
CCSc1nc(-c2ccc(OC)c(OC)c2)c(-c2ccc(OC)c(OC)c2)[nH]1	15.1 µM
COc1ccc(/C=C\c2cc(OC)c(OC)c(OC)c2)cc1O [COMBRETASTATIN A4]	0.4 µM
CCSc1nc(-c2cc(OC)c(OC)c(OC)c2)c(-c2ccc(OC)c(OC)c2)[nH]1	13.2 µM
CCSc1nc(-c2cc(OC)c(OC)c(OC)c2)c(-c2ccccc2OC)[nH]1	11 µM
CCSc1nc(-c2cc(OC)c(OC)c(OC)c2)c(-c2ccc(OC)cc2)[nH]1	0.75 µM
COc1ccc(-c2nc(SC)[nH]c2-c2ccc(OC)c(OC)c2)cc1OC	17.2 µM
COc1ccc(-c2[nH]c(SC)nc2-c2cc(OC)c(OC)c(OC)c2)c(OC)c1	4.15 µM
COc1ccccc1-c1[nH]c(SC)nc1-c1cc(OC)c(OC)c(OC)c1	12.2 µM

Looking for the measured IC50 of COc1ccc(-c2[nH]c(SC)nc2-c2cc(OC)c(OC)c(OC)c2)cc1OC , can you help?
4.04 µM

Looking for the measured IC50 of COc1cc(-c2nc(SC)[nH]c2-c2cccc(OC)c2OC)cc(OC)c1OC , can you help?
18.1 µM

Looking for the measured IC50 of COc1ccc(-c2[nH]c(SC)nc2-c2cc(OC)c(OC)c(OC)c2)cc1 , can you help?
0.52 µM

###

Tested on: AGS
Assay: Cytotoxicity against human AGS cells assessed as growth inhibition after 48 hrs by MTT assay
Format: functional, cell-based
Quantity Name: IC50 (µM)
Give the number; µM is assumed, so skip it.

COc1ccc(/C=C\c2cc(OC)c(OC)c(OC)c2)cc1O	0.04

Looking for the measured IC50 of COc1ccc(-c2[nH]c(SC)nc2-c2cc(OC)c(OC)c(OC)c2)cc1OC , can you help?
10.6

Looking for the measured IC50 of CCSc1nc(-c2cc(OC)c(OC)c(OC)c2)c(-c2ccc(OC)c(OC)c2)[nH]1 , can you help?
37.2

Looking for the measured IC50 of CCSc1nc(-c2cc(OC)c(OC)c(OC)c2)c(-c2cccc(OC)c2OC)[nH]1 , can you help?
39

Looking for the measured IC50 of CCSc1nc(-c2cc(OC)c(OC)c(OC)c2)c(-c2ccc(OC)cc2OC)[nH]1 , can you help?
18.6
